Hi there, I'd appreciate the recorded Acetaldehyde Headspace Concentration for every entry that follows.
EXPERIMENT: Nucleophilic reagents: aldehyde content in vinyl acetate-acrylic latex
TEST_CONDITIONS: Rovace 9900 pre-treated 1 week with 50 ppm N51032; reagent 50 ppm, 55° C. 2 hours, then 1 week RT
Answers are plain numbers, in ppm.

Provide the reported Acetaldehyde Headspace Concentration of each entry below, same order.
1. O=C1CC(=O)NC(=O)N1
2. Nc1ccc(CO)cc1
3. NCCNCCNCCN
4. NNc1ccc(C(=O)O)cc1 [4HB, 4-hydrazino benzoic acid]
5. Nc1ccc(N)cc1

**Result**
[0, 151, 42, 14, 0]

---

Hi there, I'd appreciate the recorded EA content for every entry that follows.
System: N51032
EXPERIMENT: Small molecule inhibitors: EA content of latex containing N51032
Type: biochemical
TEST_CONDITIONS: AC-261 latex, N51032 50 ppm, inhibitor 1% added simultaneously (Control: none), 168 hr
Answers are plain numbers, in ppm.

OB(O)c1ccccc1 | 117

Provide the reported EA content of each entry below, same order.
1. CC(C)(C)CB(O)O
2. OB(O)C1CCCCC1
3. CCCCCCCCCCS(=O)(=O)[O-].[Na+] [S-1-DS, Sodium 1-decane-sulfonate]
4. CC(C)CB(O)O

**Result**
1. 6
2. 79
3. 77
4. 79

---

STUDY_SYSTEM: CALBL (Moesziomyces antarcticus)
Construct: purchased Novozymes, Bagsvaerd, Denmark Novozym CALB L
Sequence (P41365 26-342): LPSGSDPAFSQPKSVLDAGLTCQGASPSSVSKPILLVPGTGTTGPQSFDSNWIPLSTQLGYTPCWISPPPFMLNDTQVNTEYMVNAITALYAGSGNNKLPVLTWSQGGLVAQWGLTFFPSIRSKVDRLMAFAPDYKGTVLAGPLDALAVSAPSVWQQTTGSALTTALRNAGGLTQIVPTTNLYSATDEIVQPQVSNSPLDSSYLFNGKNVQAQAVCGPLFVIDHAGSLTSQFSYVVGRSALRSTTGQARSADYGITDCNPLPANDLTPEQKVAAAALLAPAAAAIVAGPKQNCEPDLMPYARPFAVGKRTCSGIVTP
EXPERIMENT: Small molecule inhibitors: EA content of latex containing CALBL
Assay type: biochemical
TEST_CONDITIONS: AC-261 latex, CALBL 60 ppm, inhibitor 1.0% added simultaneously (Control: none), 0 hr
Hi there, I'd appreciate the recorded EA content for every entry that follows.
Answers are plain numbers, in ppm.

Here is how some compounds turned out for EA content.
OB(O)C1CCCCC1 [CBA, cyclohexylboronic acid] | 102
CC(C)CB(O)O [2MPB, (2-methylpropyl) boronic acid] | 105
CCCCCCCCCCS(=O)(=O)[O-].[Na+] [S-1-DS, Sodium 1-decane-sulfonate] | 114

Provide the reported EA content of each entry below, same order.
1. OB(O)c1ccccc1 [PBA, phenylboronic acid]
2. CC(C)(C)CB(O)O [NPB, Neopentylboronic acid]

**Result**
108
107
